For each entry below, report its neutralization IC50 value.
tgt: Env of HIV-1 strain ZM53M.PB12 (HIV-1)
experiment-notes: cell-based or functional assay

Worked set:
Quick note, neutralization IC50 for γ46κ5 (antibody, V domains shown) VH: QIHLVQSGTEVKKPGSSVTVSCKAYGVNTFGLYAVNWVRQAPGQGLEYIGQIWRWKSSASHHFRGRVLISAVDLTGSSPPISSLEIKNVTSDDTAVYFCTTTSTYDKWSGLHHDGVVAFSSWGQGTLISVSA VL: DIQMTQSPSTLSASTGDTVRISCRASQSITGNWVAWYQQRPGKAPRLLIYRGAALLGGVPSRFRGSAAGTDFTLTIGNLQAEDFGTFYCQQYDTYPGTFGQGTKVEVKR landed at 12.4 µg/mL

Quick note, neutralization IC50 for γ46κ11 (antibody, V domains shown) VH: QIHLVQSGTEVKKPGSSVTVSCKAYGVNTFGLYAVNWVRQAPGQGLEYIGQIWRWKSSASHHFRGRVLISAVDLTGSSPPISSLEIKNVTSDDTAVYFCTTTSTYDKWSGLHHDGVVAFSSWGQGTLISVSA VL: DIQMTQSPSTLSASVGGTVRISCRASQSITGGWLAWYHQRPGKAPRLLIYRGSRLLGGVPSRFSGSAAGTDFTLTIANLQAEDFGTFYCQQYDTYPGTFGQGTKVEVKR landed at > 15 µg/mL

Now for another entry.
Quick note, neutralization IC50 for γ59κ11 (antibody, V domains shown) VH: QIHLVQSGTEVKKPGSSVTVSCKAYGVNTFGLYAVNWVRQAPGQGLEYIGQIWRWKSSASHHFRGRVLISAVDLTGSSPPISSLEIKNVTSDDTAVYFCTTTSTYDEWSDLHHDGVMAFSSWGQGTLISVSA VL: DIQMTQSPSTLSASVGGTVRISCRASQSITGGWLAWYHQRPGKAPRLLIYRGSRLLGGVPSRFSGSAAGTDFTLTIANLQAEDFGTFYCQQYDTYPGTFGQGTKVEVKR landed at > 15 µg/mL
